Test system: 832693-133-R-J1-PDC multi-cell spheroids, viability;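 further: spheroids exposed to the drugs for one week before the viability readout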
PROCEDURE_TEXT: Anticancer human tumor 832693-133-R-J1-PDC patient-derived head and neck squamous carcinoma cell line growth inhibition [IpAb]
TEST_PARAMETERS: curve of first compound; second compound 0.1 µM
Protocol: Combinatorial screen of targeted agents with ipatasertib and abemaciclib in multi-cell type tumor spheroids […] Compounds. […] If the clinical Cmax for an agent had not been determined, the highest concentration tested was 10 microM. NCI60 Cell Culture. […] The optimal seeding densities for each of the cell lines at each time point assessed were determined prior to performing the concentration response studies. […]
For each record, write down the corresponding pIC50.
One number for each entry, as −log10 of the molar value.

{"columns": ["COMPOUND", "OBSERVED_RESULT"],
 "data": [
  ["Cn1cnc2c(F)c(Nc3ccc(Br)cc3Cl)c(C(=O)NOCCO)cc21 + CC(C)NCC(C(=O)N1CCN(c2ncnc3c2C(C)CC3O)CC1)c1ccc(Cl)cc1", 7.02]
]}

Go through the list and state pIC50 for each entry.
1. Cc1nc(NC(=O)N2CCCC2C(N)=O)sc1-c1ccnc(C(C)(C)C(F)(F)F)c1 (stereo not given) + CC(C)NCC(C(=O)N1CCN(c2ncnc3c2C(C)CC3O)CC1)c1ccc(Cl)cc1
2. Cn1ncc(Cl)c1-c1cc(C(=O)NC(CN)Cc2cccc(F)c2)sc1Cl (stereo not given) + CC(C)NCC(C(=O)N1CCN(c2ncnc3c2C(C)CC3O)CC1)c1ccc(Cl)cc1

A:
6.34
5.30

// field: pIC50; key: CC1(C)CCC(CN2CCN(c3ccc(C(=O)NS(=O)(=O)c4ccc(NCC5CCOCC5)c([N+](=O)[O-])c4)c(Oc4cnc5[nH]ccc5c4)c3)CC2)=C(c2ccc(Cl)cc2)C1 + CC(C)NCC(C(=O)N1CCN(c2ncnc3c2C(C)CC3O)CC1)c1ccc(Cl)cc1 ; value = 5.01

// provenance: PubChem BioAssay AID2060337
